test system: Pfs48/45 D2-3 (Plasmodium falciparum 3D7, UniProt Q8I6T1)
Sequence (Q8I6T1 184-428): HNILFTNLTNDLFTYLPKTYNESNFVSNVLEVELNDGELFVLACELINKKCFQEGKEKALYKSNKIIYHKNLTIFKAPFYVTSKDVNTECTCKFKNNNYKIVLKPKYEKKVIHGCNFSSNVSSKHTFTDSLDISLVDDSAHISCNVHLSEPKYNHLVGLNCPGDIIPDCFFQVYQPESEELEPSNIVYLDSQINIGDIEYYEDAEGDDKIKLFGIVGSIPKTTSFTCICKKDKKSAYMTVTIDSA
assay name: ELISA
condition description: both partners purified

binder: RUPA-99 (antibody, V domains shown, human IgG1; source: recombinant human IgG1, 293T (Protein A purified) or GenScript) VH: QVHLVQSGAEVKKPGASVKVSCKASGYNFLYHDITWVRQATGQGLEWLGWMNPNTGDTGYAQNFQGRVTMTRDMSRSTAYMELDSLRSEDTAVYYCARGVGSYHGSGGWLDPWGPGTLVIVSS VL: QSVLTQPPSVSETPGQRVTISCSGSSSNIGLNTVNWYQQLPGTAPNLLIHNDNQRPSGVPDRFSGSKSGTSASLAISGLHSEDEADYYCATWDDSLKRRVFGGGTKLTVL
binding result: binds

binder: RUPA-113 (antibody, V domains shown, human IgG1; source: recombinant human IgG1, 293T (Protein A purified) or GenScript) VH: QVQLVQSGAELKKPGASVKVSCKASGYTFTSHDITWVRQAPGQGLEWMGWMNPNTGDRGYARNFQGRLTLTRDMSISTAFMVLSSLRPEDTAVYYCTRGVGTYHGAGGWFDPWGQGTLVSVSS VL: QSVLTQPPSASETPGQRVTISCSGSSSNIGSNIVSWYQQLPGTAPKLLIYNNNQRPSGVPDRFSGSQSGTSASLAISGLQSEDEADYYCATWDDSLERGVFGGGTKLTVL
binding result: binds

binder: RUPA-153 (antibody, V domains shown, human IgG1; source: recombinant human IgG1, 293T (Protein A purified) or GenScript) VH: QVQLQESGPGLVKPSQTLSLTCTVSGSSVSSGGYYWSWIRQHPGKGLEWIGYLYYSGNTGNTFYNPSLKSRVTISADPSKNQFSLELSSVTAADTAMYYCARAVGVGRYFGYFPSWGLGTLVTVSS VL: EIVMTQSPATLSVSPGERATLSCRASQSVSSNLAWYQQKPGQTPRLLIYGSSTRATGIPARFSGSGSGTEFALTISSLQSEDFAVYYCQQYNNWPPPWTFGQGTKVEIK
binding result: binds

binder: RUPA-100 (antibody, V domains shown, human IgG1; source: recombinant human IgG1, 293T (Protein A purified) or GenScript) VH: QVQLVESGGGVVQPGRSLRLSCAASGFSFSHYGMHWVRQAPGKGLEWVAVISYDGNYKYYGDSVKGRFTISRDNFKNTLYLQMNSLRPEDTAVYYCAKGKAHSCVSTSCYTDFWGQGTLVTVPS VL: SYELTQPPSVSVSPGQTARITCSGDALPKKYAYWYQQKSGQAPVLVIYEDSKRPSGIPERFSGSSSGTMATLTISGAQVEDEGDYYCYSTDSSYNHRGVFGGGTKLTVL
binding result: binds

binder: RUPA-105 (antibody, V domains shown, human IgG1; source: recombinant human IgG1, 293T (Protein A purified) or GenScript) VH: QVQLVQSGAEVKKPGASVKVSCTASGYNFLTHDISWVRQATGQGLEWMGWMNPNTGKKGYVQKFQGRVTMDRDMSKSTGYMELRSLTSEDTAVYYCVRGVGSYYGSGGWLDPWGQGTLVIVSS VL: QSVLTQPPSASETPGQKVTISCSGSSSNIGSDTVSWYVQVPGTAPKLLIYNDNQRPSGVPDRFSGSKSGTSASLAISGLQSEDEADYYCATWDASLKRRVFGGGTTLTVL
binding result: binds

binder: RUPA-147 (antibody, V domains shown, human IgG1; source: recombinant human IgG1, 293T (Protein A purified) or GenScript) VH: QVQLVQSGAEVKKPGASVKVSCTASGYNFLTHDISWVRQATGQGLEWMGWMNPNTGKKGYVQKFQGRVTMDRDMSKSTAYMELRSLTSEDTAVYYCVRGVGSYYGSGGWFDPWGQGTLVTVSS VL: QSVLTQPPSASETPGQKVTISCSGSSSNIGSDTVSWYVQLPGTAPKLLIYNDNQRPSRVPDRFSGSKSGTSASLAISGLQSEDEADYYCATWDASLKRRVFGGGTTLTVL
binding result: binds

binder: RUPA-91 (antibody, V domains shown, human IgG1; source: recombinant human IgG1, 293T (Protein A purified) or GenScript) VH: QVQLVQSGAEVKKIGASVKVSCKASGYTFTSHDIIWVRQAAGQGLEWMGWMNPNTGKKGYVEKFQGRVTLTRNMSTGTAYMELSSLRSDDTAVYYCARGVGTYHGSEGWLDPWGQGTLITVSS VL: QSVLTQPPSASETPGQRVTISCSGSSSNVGSNSVNWYQQVPGTAPKLLIYNTNQRPSGVPARFSGSKSGTSASLAISGLHSEDEADYYCATWDGSLKKGVFGGGTKVTVL
binding result: binds

binder: RUPA-140 (antibody, V domains shown, source: recombinant human IgG1, 293T (Protein A purified) or GenScript) VH: EVQLLESGGGLVQPGGSLRLSCVASGFSFSNFAMNWVRQAPGKGLEWVSAISGSGGSTYYIDSVKGRFSISRDTSKNTLYLQMNSLRAEDTAVYYCAKVGGRSIFGEATDYWGQGSLVTVSS VL: DIQMTQSPSSLSASVGDRVTITCRASQSINKYLNWYQQKPGRAPKLLIQVASSLQSGVPSRFSGSGSGTDFTLTISSLQPEDFATYYCQQTYTLPLIFGGGTKVEIK
binding result: binds

binder: RUPA-87 (antibody, V domains shown, human IgG1; source: recombinant human IgG1, 293T (Protein A purified) or GenScript) VH: QVQVVQSGAEVRKPGASVKVSCKTSGYTFIYYYIHWVRQAPGQGLEWLGWINPNSGGTKYAQQFQGRVTVTRDTSVSTAYMELNGLTSDDTAVYYCARVVAAEGYFDYWGQGTLLTVSS VL: DIQMTQSPSSVSASVGDRVTITCRASQGISGWLAWYQQKPGKAPKLLIYAASTLQSGVPSRFSGSGSGTDFTLTISSLQPDDFATYFCQQANSFPLTFGGGTKISLK
binding result: binds

binder: RUPA-151 (antibody, V domains shown, human IgG1; source: recombinant human IgG1, 293T (Protein A purified) or GenScript) VH: QVQLVQSGAEVKKTGASVKVSCKASGYTFTSHDIIWVRQAAGQGLEWMGWLNPNTGKKGYVEKFQGRVMLTRNMSTGTAYMELSSLRSDDSAIYYCARGVGTYHGSEGWLDPWGQGTLVTVSS VL: QSVLTQPPSASETPGQGVTISCSGSSSNVGSNAVNWYQQLPGRAPKLLMYNTNQRPSGVPDRFSGSKSGTSASLAISGLRSADEADYYCAAWDDSLKRGVFGGGTKLTVL
binding result: binds

From: paper PMC9942873
